Target: hS1P3 receptors (Homo sapiens, UniProt Q99500)
Sequence (Q99500 whole entry): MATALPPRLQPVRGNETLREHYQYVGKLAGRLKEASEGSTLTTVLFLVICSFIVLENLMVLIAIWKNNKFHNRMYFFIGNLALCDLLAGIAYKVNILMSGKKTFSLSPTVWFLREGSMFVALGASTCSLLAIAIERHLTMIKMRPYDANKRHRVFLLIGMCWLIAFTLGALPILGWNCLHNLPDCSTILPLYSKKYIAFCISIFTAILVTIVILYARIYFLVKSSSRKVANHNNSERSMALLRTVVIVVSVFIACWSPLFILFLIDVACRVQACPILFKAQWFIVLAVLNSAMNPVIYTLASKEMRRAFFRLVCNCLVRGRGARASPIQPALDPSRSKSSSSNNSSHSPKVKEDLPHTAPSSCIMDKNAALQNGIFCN
Test: Intracellular Ca2+ mobilization in CHO cells expressing human S1P receptors (hS1P3)
Conditions: read-out: S1P3 (EC50 class, intracellular Ca2+ mobilization)
Measured Property: EC50

- NC(/C=C(/F)P(=O)(O)O)CCc1ccc(Sc2cccc(OCc3ccccc3)c2)cc1Cl (centres unmarked) [Example 253]: 100 to 1000 nM
- NC(CO)(CCCc1ccc(Sc2cccc(OCc3ccccc3)c2)cc1Cl)COP(=O)(O)O (centres unmarked) [Example 236]: 10 to 100 nM
- NC(CO)(CCCc1ccc(Oc2cccc(C(F)(F)F)c2)cc1Cl)COP(=O)(O)O (centres unmarked) [Example 300]: ≥ 1000 nM
- NC(/C=C/P(=O)(O)O)(CO)CCCc1ccc(Sc2cccc(OCc3ccccc3)c2)cc1Cl (centres unmarked) [Example 263]: 100 to 1000 nM
- NC(CO)(CCc1ccc(Sc2cccc(OCc3ccccc3)c2)cc1Cl)COP(=O)(O)O (centres unmarked) [Example 237]: < 10 nM
- CC(N)(CCc1ccc(Sc2cccc(OCc3ccccc3)c2)cc1Cl)COP(=O)(O)O (single isomer, unassigned; (-)) [Example 250]: ≥ 1000 nM
- NC(CO)(CCCc1ccc(Sc2cccc(OCc3ccccc3)c2)cc1Cl)C(O)C(F)(F)P(=O)(O)O (centres unmarked) [Example 293]: 100 to 1000 nM
- CC(N)(CCc1ccc(Sc2cccc(OCc3ccccc3)c2)cc1Cl)COP(=O)(O)O (single isomer, unassigned; (+)) [Example 249]: < 10 nM
- NC(/C=C(\F)P(=O)(O)O)CCc1ccc(Sc2cccc(OCc3ccccc3)c2)cc1Cl (centres unmarked) [Example 254]: ≥ 1000 nM
- NC(CO)(CCCc1ccc(Oc2cccc(C(F)(F)F)c2)cc1Cl)CCP(=O)(O)O (centres unmarked) [Example 296]: ≥ 1000 nM
- NC(CO)(CCc1ccc(Sc2ccc(OCc3ccccc3)cc2)cc1Cl)CCP(=O)(O)O (centres unmarked) [Example 308]: ≥ 1000 nM
- NC(/C=C/P(=O)(O)O)(CO)CCc1ccc(Sc2cccc(OCc3ccccc3)c2)cc1Cl (centres unmarked) [Example 267]: ≥ 1000 nM
- CCCC(N)(/C=C/P(=O)(O)O)CCCc1ccc(Sc2cccc(OCc3ccccc3)c2)cc1Cl (centres unmarked) [Example 283]: 10 to 100 nM
- NC(/C=C/P(=O)(O)O)(CO)CCCCc1ccc(Sc2cccc(OCc3ccccc3)c2)cc1Cl (centres unmarked) [Example 290]: 10 to 100 nM

The measured values listed here are drawn from patent US7759326B2.
